Some molecules, each annotated with its measured half-life.
Assay: Stability in aqueous buffer assessed as half life
Type: physicochemical
Conditions: aqueous buffer
Give a bare numeral; the unit min is implied.

Molecule	Readout kind	Meas value
O=C1c2cnn(C(=O)C3CC3)c2CCC1Br (configuration not stated)	half-life	38.7

Kindly review the next molecule as well.
Ask | Data request, read-out half-life, for `O=C(C1CC1)n1cc2c(n1)CCC(Br)(Br)C2=O`
Reply | 235

* * *

Target: Neutrophil elastase (Homo sapiens)
Assay: Inhibition of human neutrophil elastase at 50 uM
Activity calls are given as the source filed them. The rule behind the calls is not given here.
Readout kind: inhibition

As a guide, the following entries are already answered.
Molecule	System name	inhibition
O=C1CCCc2nn(CC(=O)N3CCNCC3)cc21	Neutrophil elastase (Homo sapiens)	inactive
O=C1c2cn(CC(=O)N3CCN(c4ccccc4)CC3)nc2CCC1Br (stereo unspecified)	Neutrophil elastase (Homo sapiens)	inactive
O=C1c2cnn(CC(=O)N3CCN(c4ccccc4)CC3)c2CCC1Br (stereo unspecified)	Neutrophil elastase (Homo sapiens)	inactive
O=C(NC1CCCc2c1cnn2-c1ccccc1)C1CC1 (stereo unspecified)	Neutrophil elastase (Homo sapiens)	inactive
O=C(C1CC1)N(C(=O)C1CC1)C1CCCc2c1cnn2-c1ccccc1 (stereo unspecified)	Neutrophil elastase (Homo sapiens)	inactive

Kindly review the next molecule as well.
Ask | Data request, read-out inhibition, for `CC(C)(C)OC(=O)N1CCN(C(=O)Cn2cc3c(n2)CCCC3=O)CC1`
Reply | inactive
